Measured INHIBITION, listed per entry.
# System: Plasmodium berghei
# ASSAY PROCEDURE: Screen against P. berghei liver stage (PbLuc), transformed with Luciferase, at 10uM
# Type: functional, HepG2
# ASSAY SETUP: tested at 10 uM
Screen size: about 69,000 compounds; about 8,600 (12%) showed an effect of 50% or more. Shown is part of a subset that was picked to be rich in strong results.
Numbers only; they are read as %.

> print(dat)
                                   molecule  measured.quantity  unit  meas.value
1  O=C(NCC1CCCO1)c1cc(COc2ccccc2F)[nH]n1 (stereo unspecified)         INHIBITION     %        16.8
2  O=S(=O)(NCC1CCN(CCN2CCOCC2)C1)c1ccccc1F (stereo unspecified)         INHIBITION     %        47.1
3            O=S(=O)(Cc1ccccc1F)NCCN1CCOCC1         INHIBITION     %       -11.9
4  CC(C)(C)S(=O)(=O)CCNC1CSCCc2ccccc21 (stereo unspecified)         INHIBITION     %       -56.6
5  O=C(COCC1CC[C@H]2[C@H](CCN2c2ncccn2)O1)N1CCCC1 (stereo partly specified)         INHIBITION     %        7.31

Please turn your attention to the following entry.
# input molecule: CC(=O)c1ccc(OCC(C)O)cc1O (stereo unspecified) ; wanted: its INHIBITION
47.1
